Where do the numbers come from? From patent US20060120962A1.

# test.description: in vivo
# condition.label: female, mongrel, dog, venous plasma, inhaled, 7 mg, F, aerosol bioavailability to IV bolus, based on venous AUCinf, 7 mg aerosol vs IV bolus
reported.metric: bioavailability (%)

* CN1CCN(CCCN2c3ccccc3Sc3ccc(Cl)cc32)CC1 | 82

----------
# test.description: in vivo
# condition.label: female, mongrel, dog, venous plasma, inhaled or intranasal, 7 mg, Half-Life, dog venous plasma, aerosol inhalation
reported.metric: half-life (h)

• CN1CCN(CCCN2c3ccccc3Sc3ccc(Cl)cc32)CC1 = 1.27

----------
# test.description: in vivo
# condition.label: female, mongrel, dog, venous plasma, inhaled or intranasal, 7 mg, Cmax, dog venous plasma, thermal aerosol single deep inhalation, mean ± SD
reported.metric: Cmax

* CN1CCN(CCCN2c3ccccc3Sc3ccc(Cl)cc32)CC1 | 886 ng/mL

----------
# test.description: Pharmacokinetics of aerosolized alprazolam in dog (left ventricular and venous plasma) vs IV bolus
# Assay type: in vivo
# condition.label: female, mongrel; dog left ventricular plasma; 0.7 mg, IV bolus; median
reported.metric: Tmax (s)

• Cc1nnc2n1-c1ccc(Cl)cc1C(c1ccccc1)=NC2 [alprazolam] = 25.2

----------
# test.description: in vivo
# condition.label: female, mongrel, dog, left ventricular plasma, iv, 7 mg, Cmax, dog left ventricular plasma, 2-min IV infusion
reported.metric: Cmax

• CN1CCN(CCCN2c3ccccc3Sc3ccc(Cl)cc32)CC1 = 1360 ng/mL

----------
# test.description: in vivo
# condition.label: female, mongrel, dog, venous plasma, iv, 7 mg, Half-Life, dog venous plasma, 2-min IV infusion
reported.metric: half-life (h)

- CN1CCN(CCCN2c3ccccc3Sc3ccc(Cl)cc32)CC1: 1.75

----------
# test.description: in vivo
# condition.label: female, mongrel, dog, venous plasma, iv, 7 mg, Tmax, dog venous plasma, 2-min IV infusion
reported.metric: Tmax

- CN1CCN(CCCN2c3ccccc3Sc3ccc(Cl)cc32)CC1: 2.5 min

----------
# test.description: in vivo
# condition.label: female, mongrel, dog, left ventricular and venous plasma, iv, 7 mg, Tmax, dog left ventricular and venous plasma; 2-minute IV infusion
reported.metric: Tmax

• CN1CCN(CCCN2c3ccccc3Sc3ccc(Cl)cc32)CC1 = 1.25 to 3 min

----------
# test.description: in vivo
# condition.label: female, mongrel, dog, venous plasma, inhaled or intranasal, 7 mg, Tmax, dog venous plasma, aerosol inhalation
reported.metric: Tmax (min)

• CN1CCN(CCCN2c3ccccc3Sc3ccc(Cl)cc32)CC1 [PCZ, prochlorperazine] = 1

----------
# test.description: Pharmacokinetics of aerosolized alprazolam in dog (left ventricular and venous plasma) vs IV bolus
# Type: in vivo
# condition.label: female, mongrel, inhaled or intranasal; dog venous plasma; 0.7 mg, aerosol inhalation; mean ± SD, n=4
reported.metric: Cmax (ng/mL)

- Cc1nnc2n1-c1ccc(Cl)cc1C(c1ccccc1)=NC2: 102

----------
# test.description: Pharmacokinetics of aerosolized alprazolam in dog (left ventricular and venous plasma) vs IV bolus
# Type: in vivo
# condition.label: female, mongrel, inhaled or intranasal; dog venous plasma; 0.7 mg, aerosol inhalation
reported.metric: AUC (ng·h/mL)

* Cc1nnc2n1-c1ccc(Cl)cc1C(c1ccccc1)=NC2 | 49.7

----------
# test.description: in vivo
# condition.label: female, mongrel, dog, left ventricular plasma, iv, 7 mg, Tmax, dog left ventricular plasma, IV bolus
reported.metric: Tmax (s)

* CN1CCN(CCCN2c3ccccc3Sc3ccc(Cl)cc32)CC1 | 30

----------
# test.description: in vivo
# condition.label: female, mongrel, dog, venous plasma, iv, 7 mg, Vd, dog venous plasma, IV bolus
reported.metric: Vd (L/kg)

• CN1CCN(CCCN2c3ccccc3Sc3ccc(Cl)cc32)CC1 = 2.3

----------
# test.description: in vivo
# condition.label: female, mongrel, dog, venous plasma, inhaled, 7 mg, F, aerosol bioavailability to IV infusion, based on venous AUCinf, 7 mg aerosol vs 2-min IV infusion
reported.metric: bioavailability (%)

• CN1CCN(CCCN2c3ccccc3Sc3ccc(Cl)cc32)CC1 [PCZ, prochlorperazine] = 109

----------
# test.description: in vivo
# condition.label: female, mongrel, dog, venous plasma, iv, 7 mg, Tmax, dog venous plasma, IV bolus
reported.metric: Tmax

- CN1CCN(CCCN2c3ccccc3Sc3ccc(Cl)cc32)CC1 [PCZ, prochlorperazine]: 1.1 min

----------
# test.description: Pharmacokinetics of aerosolized alprazolam in dog (left ventricular and venous plasma) vs IV bolus
# Type: in vivo
# condition.label: female, mongrel; dog venous plasma; 0.7 mg, IV bolus
reported.metric: AUC (ng·h/mL)

- Cc1nnc2n1-c1ccc(Cl)cc1C(c1ccccc1)=NC2: 52.3

----------
# test.description: in vivo
# condition.label: female, mongrel, dog, venous plasma, iv, 7 mg, CL, dog venous plasma, 2-min IV infusion
reported.metric: clearance (mL/min/kg)

• CN1CCN(CCCN2c3ccccc3Sc3ccc(Cl)cc32)CC1 [PCZ, prochlorperazine] = 24.8

----------
# test.description: in vivo
# condition.label: female, mongrel, dog, left ventricular plasma, iv, 7 mg, AUC0-10 min, dog left ventricular plasma, 2-min IV infusion
reported.metric: AUC(0-t) (ng·h/mL)

* CN1CCN(CCCN2c3ccccc3Sc3ccc(Cl)cc32)CC1 | 88.5

----------
# test.description: Pharmacokinetics of aerosolized alprazolam in dog (left ventricular and venous plasma) vs IV bolus
# Assay type: in vivo
# condition.label: female, mongrel, dog, venous plasma, inhaled or intranasal, 0.7 mg, dog venous plasma; 0.7 mg, aerosol inhalation; read-out: AUC0-240 (converted)
# Experimental: This study consisted of five young adult, female, mongrel dogs. Four animals per session were treated with the test article, alprazolam, in two separate surgical/dosing sessions. In Session 1 the test article was administered intravenously (IV) as a 5-second bolus. […] Whole blood samples were centrifuged. […] All plasma samples were stored until analyzed. […] Drug or metabolite concentrations were calculated by comparing (drug or metabolite)/internal standard ratios to standard curves prepared in dog plasma. […]
reported.metric: AUC(0-t) (ng·h/mL)

• Cc1nnc2n1-c1ccc(Cl)cc1C(c1ccccc1)=NC2 [alprazolam] = 38.3

----------
# test.description: in vivo
# condition.label: female, mongrel, dog, venous plasma, intravenous, inhaled, 7 mg, mean half-lives, dog venous; span over the three groups
reported.metric: half-life

- CN1CCN(CCCN2c3ccccc3Sc3ccc(Cl)cc32)CC1 [PCZ, prochlorperazine]: 1.27 to 1.75 h

----------
# test.description: Pharmacokinetics of aerosolized alprazolam in dog (left ventricular and venous plasma) vs IV bolus
# Type: in vivo
# condition.label: female, mongrel, inhaled or intranasal; dog left ventricular plasma; 0.7 mg, aerosol inhalation
reported.metric: Cmax

• Cc1nnc2n1-c1ccc(Cl)cc1C(c1ccccc1)=NC2 [alprazolam] = 676 ng/mL

----------
# test.description: in vivo
# condition.label: female, mongrel, dog, left ventricular plasma, iv, 7 mg, Cmax, dog left ventricular plasma, IV bolus
reported.metric: Cmax (ng/mL)

• CN1CCN(CCCN2c3ccccc3Sc3ccc(Cl)cc32)CC1 = 3480

----------
# test.description: Pharmacokinetics of aerosolized alprazolam in dog (left ventricular and venous plasma) vs IV bolus
# Assay type: in vivo
# condition.label: female, mongrel; dog venous plasma; 0.7 mg, 5-second IV bolus; mean ± SD, n=4
reported.metric: Cmax (ng/mL)

• Cc1nnc2n1-c1ccc(Cl)cc1C(c1ccccc1)=NC2 [alprazolam] = 147

----------
# test.description: in vivo
# condition.label: female, mongrel, dog, venous plasma, iv, 7 mg, CL, dog venous plasma, IV bolus
reported.metric: clearance (mL/min/kg)

* CN1CCN(CCCN2c3ccccc3Sc3ccc(Cl)cc32)CC1 | 18.9

----------
# test.description: in vivo
# condition.label: female, mongrel, dog, venous plasma, iv, 7 mg, Cmax, dog venous plasma, 2-min IV infusion, mean ± SD
reported.metric: Cmax

• CN1CCN(CCCN2c3ccccc3Sc3ccc(Cl)cc32)CC1 = 442 ng/mL

----------
# test.description: Pharmacokinetics of aerosolized alprazolam in dog (left ventricular and venous plasma) vs IV bolus
# Assay type: in vivo
# condition.label: female, mongrel, inhaled or intranasal; dog left ventricular plasma; 0.7 mg, aerosol inhalation; median
reported.metric: Tmax (s)

* Cc1nnc2n1-c1ccc(Cl)cc1C(c1ccccc1)=NC2 [alprazolam] | 15

----------
# test.description: in vivo
# condition.label: female, mongrel, dog, left ventricular plasma, inhaled or intranasal, 7 mg, Tmax, dog left ventricular plasma, aerosol inhalation
reported.metric: Tmax (s)

• CN1CCN(CCCN2c3ccccc3Sc3ccc(Cl)cc32)CC1 [PCZ, prochlorperazine] = 19.8

----------
# test.description: Pharmacokinetics of aerosolized alprazolam in dog (left ventricular and venous plasma) vs IV bolus
# Format: in vivo
# condition.label: female, mongrel, inhaled or intranasal; dog venous plasma; 0.7 mg, aerosol inhalation; median
reported.metric: Tmax (s)

* Cc1nnc2n1-c1ccc(Cl)cc1C(c1ccccc1)=NC2 [alprazolam] | 30

----------
# test.description: Pharmacokinetics of aerosolized alprazolam in dog (left ventricular and venous plasma) vs IV bolus
# Type: in vivo
# condition.label: female, mongrel, dog, venous plasma, iv, 0.7 mg, dog venous plasma; 0.7 mg, IV bolus; read-out: AUClast (converted)
reported.metric: AUC(0-t)

• Cc1nnc2n1-c1ccc(Cl)cc1C(c1ccccc1)=NC2 [alprazolam] = 45.3 ng·h/mL
